- TARGET OR SYSTEM: UniProt:Q92731
MEASUREMENT NAME: EC50 (nM)

Answered cases to consult:
COMPOUND: CCC1Oc2cc(O)cc(O)c2N=C1c1ccc(O)c(Br)c1 (stereo unspecified)
EC50 (nM): 180
//
COMPOUND: CCCC1Oc2cc(O)ccc2N=C1c1ccc(O)cc1 (stereo unspecified)
EC50 (nM): 18
//
COMPOUND: CC1Oc2cc(O)cc(O)c2N=C1c1ccc(O)cc1 (single isomer, unassigned; enantiomer B)
EC50 (nM): 74
//
COMPOUND: Oc1ccc2c(c1)CC1Oc3cc(O)ccc3N=C21 (stereo unspecified)
EC50 (nM): 77
//
COMPOUND: Cc1cc(O)cc2c1N=C(c1ccc(O)c(Br)c1)C(C)O2 (stereo unspecified)
EC50 (nM): 16

a = CC1(C)Oc2cc(O)cc(O)c2N=C1c1ccc(O)c(Br)c1
b = CC1Oc2cc(O)cc(O)c2N=C1c1ccc(O)cc1 (stereo in doubt; 4i)
c = CC1Oc2cc(O)ccc2N=C1c1ccc(O)cc1 (stereo unspecified)
d = Oc1ccc2c(c1)CCC1Oc3cc(O)ccc3N=C21 (stereo unspecified)
Task for the reader: rank each entry by its EC50, from the minimum upward. Would you mind listing the labels in the order requested?
c, b, a, d

P = CC1Oc2cc(O)cc(O)c2N=C1c1ccc(O)cc1 (single isomer, unassigned)
Q = Oc1ccc(C2=Nc3c(O)cc(O)cc3OC2)cc1
R = CCC1Oc2cc(O)cc(O)c2N=C1c1ccc(O)cc1 (stereo unspecified)
S = CCC1Oc2cc(O)ccc2N=C1c1ccc(O)cc1 (stereo unspecified)
T = Oc1ccc(C2=Nc3ccc(O)cc3OC2)cc1
# desc sort on EC50 across 5 compounds # respond with the labels, arranged in the requested order
Q, T, P, R, S

P = CCC1Oc2cc(O)cc(C)c2N=C1c1ccc(O)c(Br)c1 (stereo unspecified)
Q = CC1(C)Oc2cc(O)ccc2N=C1c1ccc(O)cc1
Return label of the item with the larger EC50. Candidates: P , Q . Selection: enter the item's label.
Q
(Q: 140 nM, P: 8 nM)

* * *

The listing below reports pEC50 for molecules tested on Estrogen receptor (Homo sapiens).
pEC50: −log10 of the molar value.
MEASUREMENT NAME: pEC50

Please review the following examples before continuing.
MOLECULE: Oc1ccc2c(c1)CCC1Oc3cc(O)ccc3N=C21 (stereo unspecified)
MEASUREMENT NAME: pEC50
RECORDED VALUE: 4.92

MOLECULE: CCC1Oc2cc(O)ccc2N=C1c1ccc(O)cc1 (stereo unspecified)
MEASUREMENT NAME: pEC50
RECORDED VALUE: 7.23

MOLECULE: CC1Oc2cc(O)ccc2N=C1c1ccc(O)cc1 (stereo unspecified)
MEASUREMENT NAME: pEC50
RECORDED VALUE: 7.19

1 = CC1Oc2cc(O)cc(O)c2N=C1c1ccc(O)cc1 (single isomer, unassigned)
2 = CC1(C)Oc2cc(O)cc(O)c2N=C1c1ccc(O)c(Br)c1
Rank 1 against 2 by their pEC50 values and give the higher one. Answer = label.
1
(1: 6.85, 2: 5.85)

* * *

- TARGET OR SYSTEM: Estrogen receptor beta (Homo sapiens, UniProt Q92731)
- Sequence (Q92731 whole entry): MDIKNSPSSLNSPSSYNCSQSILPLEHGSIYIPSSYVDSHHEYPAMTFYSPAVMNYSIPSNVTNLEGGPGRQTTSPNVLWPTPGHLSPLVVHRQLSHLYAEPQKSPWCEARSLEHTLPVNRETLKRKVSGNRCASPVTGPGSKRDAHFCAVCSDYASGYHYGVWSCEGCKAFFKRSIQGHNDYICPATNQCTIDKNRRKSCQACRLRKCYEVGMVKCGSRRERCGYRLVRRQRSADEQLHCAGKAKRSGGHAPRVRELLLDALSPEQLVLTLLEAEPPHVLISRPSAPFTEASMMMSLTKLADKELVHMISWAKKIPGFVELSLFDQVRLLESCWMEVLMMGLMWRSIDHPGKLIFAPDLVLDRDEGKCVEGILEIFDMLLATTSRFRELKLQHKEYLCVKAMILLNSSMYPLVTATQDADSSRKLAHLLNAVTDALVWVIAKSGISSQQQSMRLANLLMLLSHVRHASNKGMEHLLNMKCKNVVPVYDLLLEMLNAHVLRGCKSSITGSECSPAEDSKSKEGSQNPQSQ
MEASUREMENT NAME: IC50 (µM)

The examples below pair each entry with its known result.
COMPOUND: Oc1ccc2c(c1)CCC1Oc3cc(O)ccc3N=C21 (configuration not stated)
TARGET OR SYSTEM: Estrogen receptor beta (Homo sapiens, UniProt Q92731)
IC50, µM: 2.6
--
COMPOUND: CCCC1Oc2cc(O)ccc2N=C1c1ccc(O)cc1 (configuration not stated)
TARGET OR SYSTEM: Estrogen receptor beta (Homo sapiens, UniProt Q92731)
IC50, µM: 0.32
--
COMPOUND: Oc1ccc2c(c1)CC1Oc3cc(O)ccc3N=C21 (configuration not stated)
TARGET OR SYSTEM: Estrogen receptor beta (Homo sapiens, UniProt Q92731)
IC50, µM: 1.4
--
COMPOUND: CCC1Oc2cc(O)cc(O)c2N=C1c1ccc(O)c(Br)c1 (configuration not stated)
TARGET OR SYSTEM: Estrogen receptor beta (Homo sapiens, UniProt Q92731)
IC50, µM: 1.1

1 = CCC1Oc2cc(O)ccc2N=C1c1ccc(O)cc1 (configuration not stated)
2 = CC1(C)Oc2cc(O)ccc2N=C1c1ccc(O)cc1
Select one. Lower IC50: 1 or 2 Pick one; state its label.
1

* * *

- TARGET OR SYSTEM: Estrogen receptor (Homo sapiens, UniProt P03372)
- Sequence (P03372 whole entry): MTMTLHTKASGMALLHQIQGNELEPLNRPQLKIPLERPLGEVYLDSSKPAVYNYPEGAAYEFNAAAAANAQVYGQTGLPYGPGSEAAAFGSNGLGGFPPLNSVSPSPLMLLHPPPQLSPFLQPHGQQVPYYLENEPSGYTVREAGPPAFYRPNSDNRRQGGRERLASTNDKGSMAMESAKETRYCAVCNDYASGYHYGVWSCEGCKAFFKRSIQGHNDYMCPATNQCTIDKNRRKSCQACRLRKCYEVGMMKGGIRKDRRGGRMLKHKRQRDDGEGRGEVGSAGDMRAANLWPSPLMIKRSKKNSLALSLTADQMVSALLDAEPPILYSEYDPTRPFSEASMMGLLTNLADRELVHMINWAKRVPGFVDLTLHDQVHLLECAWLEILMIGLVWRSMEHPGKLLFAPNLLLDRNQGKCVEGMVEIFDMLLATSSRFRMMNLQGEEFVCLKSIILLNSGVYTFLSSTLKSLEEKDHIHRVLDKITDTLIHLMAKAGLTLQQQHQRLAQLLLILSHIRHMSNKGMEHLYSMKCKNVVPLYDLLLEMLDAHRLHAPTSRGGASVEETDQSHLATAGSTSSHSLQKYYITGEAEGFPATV
MEASUREMENT NAME: IC50 (µM)

COMPOUND: CC1(C)Oc2cc(O)cc(O)c2N=C1c1ccc(O)c(Br)c1
IC50 / µM: 6
//
COMPOUND: Oc1ccc2c(c1)CC1Oc3cc(O)ccc3N=C21 (centres undefined)
IC50 / µM: 5.6
//
COMPOUND: Cc1cc(O)cc2c1N=C(c1ccc(O)c(Br)c1)C(C)O2 (centres undefined)
IC50 / µM: 0.32
//
COMPOUND: CCC1Oc2cc(O)cc(O)c2N=C1c1ccc(O)c(Br)c1 (centres undefined)
IC50 / µM: 5.3
//
COMPOUND: CC1(C)Oc2cc(O)ccc2N=C1c1ccc(O)cc1
IC50 / µM: 8.6

a = CC1Oc2cc(O)cc(O)c2N=C1c1ccc(O)cc1 (single isomer, unassigned; enantiomer B)
b = CCC1Oc2cc(O)cc(C)c2N=C1c1ccc(O)c(Br)c1 (centres undefined)
c = CC1Oc2cc(O)ccc2N=C1c1ccc(O)cc1 (centres undefined)
d = Oc1ccc(C2=Nc3c(O)cc(O)cc3OC2)cc1
Arrange the 4 entries by IC50 so the values rise. To answer, arrange all of the labels according to the requested order.
b, c, a, d
(b: 0.18 µM, c: 1.7 µM, a: 6.3 µM, d: 33 µM)

* * *

UniProtKB P03372 measurements of EC50, listed per entry.
MEASUREMENT NAME: EC50 (µM)

Completed entries (count: 3):
COMPOUND: CCC1Oc2cc(O)cc(O)c2N=C1c1ccc(O)c(Br)c1 (stereo unspecified)
TARGET OR SYSTEM: UniProtKB P03372
EC50 (µM): 2
--
COMPOUND: Cc1cc(O)cc2c1N=C(c1ccc(O)c(Br)c1)C(C)O2 (stereo unspecified)
TARGET OR SYSTEM: UniProtKB P03372
EC50 (µM): 0.046
--
COMPOUND: CC1Oc2cc(O)cc(O)c2N=C1c1ccc(O)cc1 (single isomer, unassigned; enantiomer B)
TARGET OR SYSTEM: UniProtKB P03372
EC50 (µM): 0.29

P = CCC1Oc2cc(O)cc(C)c2N=C1c1ccc(O)c(Br)c1 (stereo unspecified)
Q = CC1(C)Oc2cc(O)ccc2N=C1c1ccc(O)cc1
R = Oc1ccc(C2=Nc3ccc(O)cc3OC2)cc1
Rank entries according to their EC50, from the largest number down. // format: requested-order list of labels
R, Q, P
(R: 6.9 µM, Q: 3.1 µM, P: 0.17 µM)

* * *

- TARGET OR SYSTEM: Estrogen receptor (Homo sapiens, UniProt P03372)
pEC50: −log10 of the molar value.
MEASUREMENT NAME: pEC50

COMPOUND: Oc1ccc2c(c1)CC1Oc3cc(O)ccc3N=C21 (stereo not given)
RECORDED VALUE: 6.05

COMPOUND: CC1Oc2cc(O)cc(O)c2N=C1c1ccc(O)cc1 (stereo in doubt; 4i)
RECORDED VALUE: 6.82

COMPOUND: Oc1ccc(C2=Nc3c(O)cc(O)cc3OC2)cc1
RECORDED VALUE: 5.74

I = CCCC1Oc2cc(O)ccc2N=C1c1ccc(O)cc1 (stereo not given)
II = CCC1Oc2cc(O)cc(O)c2N=C1c1ccc(O)cc1 (stereo not given)
Field: lower pEC50 | Options: I / II Pick one; state its label.
I
